- target-desc: T1, 4H_APH
- T1 chain: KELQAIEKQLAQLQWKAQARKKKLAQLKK
- experimental-details: two-hybrid library CCmax;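 also: natural log of median RNA to DNA barcode read ratio; higher means stronger binding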
- conditions-used: mean of both orientations
measurement-name: interaction score

A selection of reference data follows.
[
  {
    "binder": "DEIAALEAKNAALKAKNAALKAKIAALKG [4H510-AA]",
    "interaction score": -2.26
  },
  {
    "binder": "DKIAALKAKNAALKAEIAALEAKNAALEG [4H3015-AA]",
    "interaction score": -2.92
  },
  {
    "binder": "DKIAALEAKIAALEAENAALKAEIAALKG [4H2330-AA]",
    "interaction score": -2.24
  },
  {
    "binder": "DKIAALKAENAALEAKIAALEAEIAALEG [4H2721-AA]",
    "interaction score": -2.01
  }
]

1 = DKIAALKAENAALEAKIAALKAKNAALKG [4H2736-AA]
2 = DKNAALKAEIAALKAKNAALKAEIAALEG [4H3705-AA]
Ask | Field: entry with larger interaction score (options 1 / 2 ). Selection: enter the item's label.
Reply | 1
(1: -1.33, 2: -2.68)
